From: patent US12643899B2

Tested on: DENV-3
Experiment: DENV-3 intracellular dsRNA (Cellomics) in A549 cells
Assay type: cell-based, dengue virus
Details: Dengue virus, DENV3, DENV-3, intracellular dsRNA (Cellomics)
Description: Error bars represent SD among 3 biological replicates. […] Cells were labeled for viral dsRNA with […] then imaged and quantified using the Cellomics ArrayScan™ VTI High Content Screening system. […] A549 cells were seeded onto Corning tissue culture treated 96 well plates and incubated at 37 degrees Celsius and 5% CO2 for 24 h. […] Labeled 96 well plates were imaged and quantified using the Cellomics ArrayScan VTI. […]
readout: IC50 (µM)
The reply should be a number in µM, with the unit left off.

The reported IC50 of the molecule "COc1c2n(c3ccccc13)[C@]1(O)C(=O)N(C)C(=O)[C@]1(O)c1c-2[nH]c2ccc(Cl)cc12" was 1.5

----------
Test system: DENV-2
Assay: DENV-2 intracellular dsRNA (Cellomics) in A549 cells
Type: cell-based, dengue virus
Settings: Dengue virus, DENV2, DENV-2, intracellular dsRNA (Cellomics)
readout: pIC50
Schema: pIC50 number; meaning minus log10 of the concentration expressed in molar units.

Short answer on DENV-2 for "COc1c2n(c3ccccc13)[C@]1(O)C(=O)N(C)C(=O)[C@]1(O)c1c-2[nH]c2ccc(Cl)cc12" , pIC50: 5.64

----------
Assay: MTS cytotoxicity assay in U87 MG cells
Type: cell-based
Details: human, U87 MG cells (human brain)
readout: CC50 at 48 h (µM)
Field: numeric (µM). Do not append units.

# compound COc1c2n(c3ccccc13)[C@]1(O)C(=O)N(C)C(=O)[C@]1(O)c1c-2[nH]c2ccc(Cl)cc12 [CA] ; its CC50 at 48 h = 42

----------
Assay: MTS cytotoxicity assay in A549 cells
Assay type: cell-based, human
Settings: human, A549 cells (human lung carcinoma)
readout: CC50 at 48 h (µM)
Give the value, in units of µM, as a plain number.

Looking up COc1c2n(c3ccccc13)[C@]1(O)C(=O)N(C)C(=O)[C@]1(O)c1c-2[nH]c2ccc(Cl)cc12 [CA] , I see its CC50 at 48 h listed as 54

----------
Test system: SARS-CoV-2
Assay: SARS-CoV-2 intracellular viral RNA and nucleocapsid protein in Caco-2 cells
Type: cell-based
Settings: Severe acute respiratory syndrome coronavirus 2, Caco-2, read-out: ED50, intracellular SARS-CoV-2 nucleocapsid protein, Caco-2 cells, 3 hours pre-treatment
readout: pEC50
Keep in mind that pEC50 stands for -log10 of concentration in molar terms.

The reported pEC50 of the molecule "COc1c2n(c3ccccc13)[C@]1(O)C(=O)N(C)C(=O)[C@]1(O)c1c-2[nH]c2ccc(Cl)cc12" was 8.30
